Sourced from PubChem BioAssay (NCI)

# Test system: NCI-H460 lung
# assay.details: NCI tumour cell line growth inhibition, 48 h
Each record here notes measured TGI.
assay.readout: TGI

compound | test.result
NCCCNOCCCN | > 100 µM
CCOC(=O)C12C(C(=O)OC)=C(C)N(NC(=O)Nc3ccccc3)C1(N)N(NC(=O)Nc1ccccc1)C(C)=C2C(=O)OC (centres undefined) | > 94.2 µM
CCCCCCCCCCCCCC[n+]1ccc(C(N)=O)cc1 | 8.18 µM
c1ccc(Nc2nn3c(CCCCCCCCc4nnc5sc(Nc6ccccc6)nn45)nnc3s2)cc1 | > 100 µM
O=C(CI)Nc1ccc(O)c2ccccc12 | 4.71 µM
COc1c(Br)cc2ccccc2c1-c1c(OC)c(Br)cc2ccccc12 | > 100 µM
Cc1ccc(-c2cc[n+]3c(n2)oc2ccccc23)cc1 | > 100 µM
CC(=O)O[C@H]1C(=O)[C@@]2(C)[C@H]([C@H](OC(=O)c3ccccc3)[C@]3(O)C[C@H](OC(=O)[C@H](OC(=O)OC[C@H]4COC(C)(C)O4)[C@@H](NC(=O)c4ccccc4)c4ccccc4)C(C)=C1C3(C)C)[C@]1(OC(C)=O)CO[C@@H]1C[C@@H]2O | > 33.3 µM
Cc1nc2ccccn2c1NC(=O)NNC(=S)Nc1ccc(F)cc1 | > 100 µM
C1CN(P2(N3CC3)=NP(N3CC3)(N3CC3)=NP(N3CC3)(N3CC3)=N2)CCO1 (centres undefined) | > 100 µM
CC(C)=CC(=O)N[C@H]1CC[C@]2(C)C3CC[C@]4(C)C(C(C)N(C)C)=CCC4C3CCC2[C@H]1O (some centres undefined) | 3.75 µM
O=C(O)c1c2c(cc3c1CC1(Cc4cc5c(cc4C1=O)CCC5)C3)CCC2 (centres undefined) | > 100 µM
Nc1ccc(COC(O)CN2CCCCC2)cc1[N+](=O)[O-] (centres undefined) | > 100 µM
COc1ccc(NC(=O)c2sc3nc(C)c(C(=O)/C=C/c4cccc(OC)c4)cc3c2N)cc1 | 2.45 µM
C=CCN1/C(=C2\SC(=S)N(c3ccc(C)cc3)C2=O)Sc2c1ncn(C)c2=O | > 100 µM
CCN(CC)CCn1c(=O)c2c(C)c3oc4ccccc4oc3c(C)c2c1=O | > 100 µM
C/C(CC(=O)Nc1ccccc1C)=N/NS(=O)(=O)c1ccc(C)cc1 | > 100 µM
CC1SC2(CCCCC2)N(NC(=O)CSc2nc3ccc(Cl)cc3c(=O)n2-c2ccccc2)C1=O (centres undefined) | 42.7 µM
COc1ccc2c(c1)NC1(CCN(CCCC(=O)c3ccc(F)cc3)CC1)N=N2 | 93.5 µM

----------
# Tested on: OVCAR-8 ovarian
# assay.details: NCI tumour cell line growth inhibition, 48 h

compound | TGI
CCOC(=O)[C@@]1(C)CC(O)C(=O)N1C (some centres not stated) | > 100 µM
CC(C(=O)c1ccncc1)c1ccccn1 (configuration not stated) | > 100 µM
COc1c(Br)cc2ccccc2c1-c1c(OC)c(Br)cc2ccccc12 | > 100 µM
O=C1C(=O)c2ccccc2C(O)=C1CCCc1ccc(C2CCCCC2)cc1 | > 100 µM
O=CN1N=C(c2cccc(Nc3ccnc4cc(Cl)ccc34)c2)CC1c1ccccc1 (configuration not stated) | 7.5 µM
Cc1cc(S(=O)(=O)Nc2nncn2-c2ccc(Cl)cc2)c(S)cc1Cl | > 10 µM
COc1cc(C(C)c2cc3c(cc2OCCNC(=O)COc2cc4c(cc2C(C)c2cc(OC)c(OC)c(OC)c2)OCO4)OCO3)cc(OC)c1OC (configuration not stated) | > 100 µM
O=c1c2cnccc2cc2c3ccccc3ccn12 | > 100 µM
CC1SC2(CCCCC2)N(NC(=O)CSc2nc3ccc(Cl)cc3c(=O)n2-c2ccccc2)C1=O (configuration not stated) | 59.1 µM
O=[N+]([O-])/C=C(\CS(=O)(=O)c1ccccc1)c1ccc2c(c1)OCO2 | > 100 µM
CCCCCC[C@@H](C)NC(=O)c1ccc(Nc2nc3ccccc3c3occc23)cc1 | 16.5 µM
COC(=O)[C@]1(c2cc3ccccc3[nH]2)CC2CN(C(=O)OCc3ccccc3)C1CC2=O (some centres not stated) | > 100 µM
CN(O)C(=O)CCCC(=O)NCC(C)(C)CNC(=O)CCCC(=O)N(C)O | > 100 µM
O=C(Nc1ccc(F)cc1)Nc1ccc(Br)c(C(F)(F)F)c1 | 15.2 µM
CCCCSC1=N/C(=C\c2ccc(N(C)C)cc2)C(=O)N1 | > 100 µM
C[C@]12CC[C@H]3[C@@H](CC4SC(N)=NC45C/C(=N/NC(N)=O)CC[C@]35C)[C@@H]1CCC2=O (some centres not stated) | 3.63 µM
O=C(CI)Nc1ccc(O)c2ccccc12 | 7.15 µM
C=CCOC(OCC=C)/C(Br)=C/C | 37 µM
CC(=O)O[C@H]1C(=O)[C@@]2(C)[C@H]([C@H](OC(=O)c3ccccc3)[C@]3(O)C[C@H](OC(=O)[C@H](OC(=O)OC[C@H]4COC(C)(C)O4)[C@@H](NC(=O)c4ccccc4)c4ccccc4)C(C)=C1C3(C)C)[C@]1(OC(C)=O)CO[C@@H]1C[C@@H]2O | > 33.3 µM
COC(=O)c1ccccc1/C=C1\Cc2ccc3c(c2C1=O)CCCC3 | > 100 µM
COC(=O)/C(C#N)=C(\N)C(Cl)(Cl)Cl | 4.68 µM
Cc1nc(/C=C2\C(=O)C=Cc3ccccc32)c(O)o1 | > 100 µM
